These data points were gathered from PubChem BioAssay AID671.

target: M-phase inducer phosphatase 2 (Homo sapiens) (UniProt P30305); test: inhibition of Cdc25B catalytic domain activity – biochemical, with glutathione, probe assessment, dose response (AID 671); details: recombinant Cdc25B catalytic domain, measured here: inhibition at top dose 50 uM, at 50 µM, stronger effect = higher value
Sequence (P30305 whole entry, looked up, the tested form may be a part): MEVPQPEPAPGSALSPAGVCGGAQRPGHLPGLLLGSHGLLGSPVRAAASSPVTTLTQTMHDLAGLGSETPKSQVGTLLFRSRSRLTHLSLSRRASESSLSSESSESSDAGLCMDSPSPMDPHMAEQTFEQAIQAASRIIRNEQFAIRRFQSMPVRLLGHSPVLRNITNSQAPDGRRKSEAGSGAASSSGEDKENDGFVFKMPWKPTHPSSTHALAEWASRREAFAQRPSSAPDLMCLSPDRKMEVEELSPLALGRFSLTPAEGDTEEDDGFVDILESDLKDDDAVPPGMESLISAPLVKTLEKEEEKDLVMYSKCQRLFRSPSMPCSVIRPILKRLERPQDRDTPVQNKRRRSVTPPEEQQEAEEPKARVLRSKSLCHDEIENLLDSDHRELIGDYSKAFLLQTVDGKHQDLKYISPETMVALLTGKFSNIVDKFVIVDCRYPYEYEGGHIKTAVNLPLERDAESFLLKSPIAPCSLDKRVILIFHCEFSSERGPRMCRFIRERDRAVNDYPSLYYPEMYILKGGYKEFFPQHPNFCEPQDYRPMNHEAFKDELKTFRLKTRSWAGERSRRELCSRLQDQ
Provide the reported inhibition of each item.
Dear colleague, please return just the value in %, with no unit written.

Give recorded inhibition with M-phase inducer phosphatase 2 (Homo sapiens) (UniProt P30305) for the following compound: Cc1ccc2c(c1C)NC(C(=O)O)C1CC=CC21 (configuration not stated)
89.9

Give recorded inhibition with M-phase inducer phosphatase 2 (Homo sapiens) (UniProt P30305) for the following compound: "c1ccc(CSc2nnc(-c3ccco3)c(-c3ccco3)n2)cc1"
84.7

Give recorded inhibition with M-phase inducer phosphatase 2 (Homo sapiens) (UniProt P30305) for the following compound: "CCOc1ccc2noc3c2c1C(=O)c1ccccc1-3"
30.7

Give recorded inhibition with M-phase inducer phosphatase 2 (Homo sapiens) (UniProt P30305) for the following compound: "N#Cc1c(N)sc(=S)c2c1CCN(Cc1ccccc1)C2"
51

Give recorded inhibition with M-phase inducer phosphatase 2 (Homo sapiens) (UniProt P30305) for the following compound: "O=C1Cc2ccccc2C(=O)N1CCc1ccccc1"
7.6

Give recorded inhibition with M-phase inducer phosphatase 2 (Homo sapiens) (UniProt P30305) for the following compound: Cc1ccc2c(c1)C1C=CCC1C(C(=O)O)N2 (configuration not stated)
88.9

Give recorded inhibition with M-phase inducer phosphatase 2 (Homo sapiens) (UniProt P30305) for the following compound: "Cn1ncnc2c(=O)n(C)c(=O)nc1-2"
63

Give recorded inhibition with M-phase inducer phosphatase 2 (Homo sapiens) (UniProt P30305) for the following compound: "CCn1nc(-c2cccs2)nc2c(=O)n(C)c(=O)nc1-2"
41.5

Give recorded inhibition with M-phase inducer phosphatase 2 (Homo sapiens) (UniProt P30305) for the following compound: "N#Cc1c(N2CCCC2)nc(N)c2c(N)nc(N3CCCC3)cc12"
-13.3

Give recorded inhibition with M-phase inducer phosphatase 2 (Homo sapiens) (UniProt P30305) for the following compound: "O=C(Nc1ccc2nc(-c3ccco3)c(-c3ccco3)nc2c1)N1CCCCCC1"
85.5

Give recorded inhibition with M-phase inducer phosphatase 2 (Homo sapiens) (UniProt P30305) for the following compound: "COc1ccc(Br)cc1/C=c1\sc2nc(-c3ccco3)nn2c1=O"
91.7

Give recorded inhibition with M-phase inducer phosphatase 2 (Homo sapiens) (UniProt P30305) for the following compound: "O=c1[nH]c(Nc2ccccc2)cc2ccccc12"
48.6

Give recorded inhibition with M-phase inducer phosphatase 2 (Homo sapiens) (UniProt P30305) for the following compound: "Cc1ccccc1Nc1cc2ccccc2c(=O)[nH]1"
40.3

Give recorded inhibition with M-phase inducer phosphatase 2 (Homo sapiens) (UniProt P30305) for the following compound: "[O-]/[N+](=C\c1ccncc1)c1ccccc1"
4.4

Give recorded inhibition with M-phase inducer phosphatase 2 (Homo sapiens) (UniProt P30305) for the following compound: "Cc1c(N=c2c(=O)c3ccccc3c2=O)c(=O)n(-c2ccccc2)n1C"
30.4

Give recorded inhibition with M-phase inducer phosphatase 2 (Homo sapiens) (UniProt P30305) for the following compound: "CCOC(=O)C(C(=O)OCC)c1cc(Br)c2noc3c2c1C(=O)c1ccccc1-3"
36.5

Give recorded inhibition with M-phase inducer phosphatase 2 (Homo sapiens) (UniProt P30305) for the following compound: "COc1ccc2noc3c2c1C(=O)c1ccccc1-3"
16.7

Give recorded inhibition with M-phase inducer phosphatase 2 (Homo sapiens) (UniProt P30305) for the following compound: "[O-]/[N+](=C\c1ccc(OC(F)F)cc1)c1ccccc1"
8.3

Give recorded inhibition with M-phase inducer phosphatase 2 (Homo sapiens) (UniProt P30305) for the following compound: "Nc1cccc2cnccc12"
-3.3

Give recorded inhibition with M-phase inducer phosphatase 2 (Homo sapiens) (UniProt P30305) for the following compound: "COc1cccc2c(C)c(C(=O)O)[nH]c12"
85.7

Give recorded inhibition with M-phase inducer phosphatase 2 (Homo sapiens) (UniProt P30305) for the following compound: "O=C(NC1(O)C(=O)c2ccccc2C1=O)c1ccccc1"
36

Give recorded inhibition with M-phase inducer phosphatase 2 (Homo sapiens) (UniProt P30305) for the following compound: "CC(=O)Nc1cc(OC(C)=O)c2nonc2c1OC(C)=O"
28.7

Give recorded inhibition with M-phase inducer phosphatase 2 (Homo sapiens) (UniProt P30305) for the following compound: O=C(O)C1Nc2c(O)cccc2C2C=CCC12 (configuration not stated)
94.8

Give recorded inhibition with M-phase inducer phosphatase 2 (Homo sapiens) (UniProt P30305) for the following compound: "CCn1nc(-c2ccccc2)nc2c(=O)n(C)c(=O)nc1-2"
34.5

Give recorded inhibition with M-phase inducer phosphatase 2 (Homo sapiens) (UniProt P30305) for the following compound: O=C(OC1CCCCC1)c1ccc2c(c1)C1C=CCC1C(C(=O)O)N2 (configuration not stated)
90.2

Give recorded inhibition with M-phase inducer phosphatase 2 (Homo sapiens) (UniProt P30305) for the following compound: COc1cccc2c1NC(C(=O)O)C1CC=CC21 (configuration not stated)
85

Give recorded inhibition with M-phase inducer phosphatase 2 (Homo sapiens) (UniProt P30305) for the following compound: "O=C1C=Cc2ccccc2C1=O"
78.6
